Reference for the values: PubChem BioAssay AID449762

Test system: M. tuberculosis H37Rv growth inhibition, 7H9 media
assay.overview: M. tuberculosis growth inhibition, HTS (AID 449762);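 note: bacterial growth assessed after seven days of incubation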
measurement.setup: measured here: IC90 growth inhibition
Results filed as inconclusive are left out.
Recorded IC90 determines the label; the label ranges are bucket A: < 10 µM; bucket B: ≥ 10 µM and < 30 µM; bucket C: ≥ 30 µM

| molecule | answer.label |
| --- | --- |
| CCCCOC(=O)CSc1nnc(-c2ccc(Cl)cc2Cl)o1 | bucket A |
| Cc1ccccc1CSc1nsc(N)n1 | bucket B |
| CCOc1cccc(/C=C/c2ccc3cccc(O)c3n2)c1O | bucket B |
| CN1/C(=C\C(=O)C[n+]2ccc(C(=O)c3ccccc3)cc2)C(C)(C)c2ccccc21 | bucket B |

Please let me know in which category the item O=[N+]([O-])c1ccc(C2Oc3ccccc3C3CC(c4ccccc4)=NN32)s1 (stereo not drawn) belongs.
bucket A

Each molecule maps to one class by IC90. Which class for COc1ccc(C2(c3ccc(OC)cc3)NC(=O)N(CC(=O)Nc3ccc(OC(F)F)cc3)C2=O)cc1 ?
bucket C

In plain terms, what class is Cc1cc2cc(CNC(=O)NC3CCCCC3)ccc2[nH]1 ?
bucket C

----------
Tested on: M. tuberculosis H37Rv growth inhibition, 7H9 media
assay.overview: M. tuberculosis growth inhibition, HTS (AID 449762);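 note: bacterial growth assessed after seven days of incubation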
measurement.setup: measured here: IC90 growth inhibition
Results filed as inconclusive are left out.
# label 1 = IC90 below 40 µM (exclusive); label 0 = IC90 at/above 40 µM

Some entries whose results are on file:
| molecule | answer.label |
| --- | --- |
| CCOC(=O)N1CCN(c2nc(N(c3ccccc3)c3ccccc3)nc(-n3ccnc3)n2)CC1 | label 0 |
| CCCn1c(=N)n(CC(=O)c2ccc(OCC(=O)OC)cc2)c2ccccc21 | label 0 |

Shifting focus to the molecule that follows.
Is 40 µM strictly greater than the molecule's reported IC90? molecule: COc1ccc(NC(=O)CSC2CCCCC2)cc1
label 0

----------
Reported IC90 is given for each of the following compounds.
Tested on: M. tuberculosis H37Rv growth inhibition, 7H9 media
assay.overview: M. tuberculosis growth inhibition, HTS (AID 449762);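 note: bacterial growth assessed after seven days of incubation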
measurement.setup: measured here: IC90 growth inhibition
Inconclusive results are not listed.

| compound | tested.on | IC90 |
| --- | --- | --- |
| COc1ccc(C(=O)C2CCCN(C3CSCCSC3)C2)c(C)c1 (stereo unspecified) | M. tuberculosis H37Rv growth inhibition, 7H9 media | 26.4 µM |
| Cc1cccc(/C=C/C(=O)c2ccc([N+](=O)[O-])o2)c1 | M. tuberculosis H37Rv growth inhibition, 7H9 media | < 0.2 µM |
| O=C(/C=C/c1ccco1)Oc1ccc(C(=S)N2CCOCC2)cc1 | M. tuberculosis H37Rv growth inhibition, 7H9 media | > 100 µM |
| O=C(CN1CCN(Cc2ccc(Cl)cc2)CC1)N/N=C/C=C/c1ccccc1[N+](=O)[O-] | M. tuberculosis H37Rv growth inhibition, 7H9 media | 37.6 µM |
| COc1ccc(-c2cc3c(=O)n(CC(=O)NCCCN4CCC(Cc5ccccc5)CC4)ncn3n2)cc1 | M. tuberculosis H37Rv growth inhibition, 7H9 media | 26.2 µM |
| Cc1c2c(nc3ccccc13)CCC(C)C2 (stereo unspecified) | M. tuberculosis H37Rv growth inhibition, 7H9 media | 61.8 µM |
| C/C(CC(=O)Nc1ccc(C)c(Cl)c1)=N\NC(=O)Cc1cnc(N)s1 | M. tuberculosis H37Rv growth inhibition, 7H9 media | > 100 µM |
| CC(C)C(=O)N1CCC2(CC1)Oc1ccc(Cl)cc1C(=O)C21CC(c2ccccc2)=NO1 (stereo unspecified) | M. tuberculosis H37Rv growth inhibition, 7H9 media | > 100 µM |
| O=C(Cc1ccc([N+](=O)[O-])cc1)Nc1cc(C(F)(F)F)cc(C(F)(F)F)c1 | M. tuberculosis H37Rv growth inhibition, 7H9 media | 3.12 µM |
| COc1ccc(NC(=O)/C(Cl)=C(/Cl)S(=O)Cc2ccc(C)cc2)cn1 (stereo unspecified) | M. tuberculosis H37Rv growth inhibition, 7H9 media | < 0.2 µM |

IC90 recorded for this compound, Cc1onc(-c2c(F)cccc2Cl)c1C(=O)O/N=C(\N)c1ccc([N+](=O)[O-])o1 , is 11 µM

Lab note: measured IC90 of CCc1ccc(C2c3[nH]c4ccccc4c3CCN2C(=O)c2ccc(=O)n(C)n2)cc1 (stereo unspecified) was 74.3 µM

Sample COc1cc(/C=C/c2cc[n+](C)cc2)ccc1OCC(=O)Nc1ccc(Cl)c(Cl)c1 ; IC90 observed: 23.5 µM

// recorded IC90 for CN1CCN(c2ccc(C(=O)c3cn(-c4ccc(F)c(Cl)c4)nn3)cc2)CC1 : > 100 µM

Record Clc1nc2c(-c3ccccc3)nnn2c2ccccc12 , field IC90: 16.6 µM

In plain terms, Cc1cccc(C2=N/C(=C\c3cccs3)C(=O)O2)c1 has a documented IC90 of 15.5 µM

The recorded IC90 for entry S=C(Nc1ccc(Cl)cc1)NC1CC2CCC(C1)N2Cc1ccccc1 (stereo unspecified) equals 14.8 µM

The compound identified as Cc1[nH]n(-c2ccccc2)c(=O)c1C(C[N+](=O)[O-])c1ccccc1Cl (stereo unspecified) registered its IC90 at 14.3 µM
